For reference, AC50 measured on Sodium-dependent dopamine transporter (Homo sapiens):

MOLECULE	AC50
NC[C@H]1CC[C@H](C(=O)Oc2ccc(CCC(=O)O)cc2)CC1 [CETRAXATE]	> 30 µM
CC(=O)O[C@H]1Cc2ccccc2N(C(N)=O)c2ccccc21 [ESLICARBAZEPINE ACETATE]	> 30 µM
CCCCc1oc2ccc(NS(C)(=O)=O)cc2c1C(=O)c1ccc(OCCCN(CCCC)CCCC)cc1	1.73 µM
N#Cc1ccc(Oc2ccc3c(c2)COB3O)cc1	> 30 µM
Cc1ccc(C(=O)c2ccc(CC(=O)O)n2C)cc1	> 30 µM

====

For reference, AC50 measured on Adenosine receptor A3 (Homo sapiens):

MOLECULE	AC50
Cc1ccnc2c1NC(=O)c1cccnc1N2C1CC1	1.02 µM
OC[C@H]1O[C@@H](n2cnc3c2NC=NC[C@H]3O)C[C@@H]1O	3.6 µM
COC(=O)C1=C(C)NC(C)=C(C(=O)OCCN2CCN(C(c3ccccc3)c3ccccc3)CC2)C1c1cccc([N+](=O)[O-])c1 (configuration not stated)	3.8 µM
CC(C)(Oc1ccc(CCNC(=O)c2ccc(Cl)cc2)cc1)C(=O)O [BEZAFIBRATE]	> 10 µM
O=C(O)CCNC(=O)c1ccc(/N=N/c2ccc(O)c(C(=O)O)c2)cc1 [BALSALAZIDE]	27.4 µM
Cc1nc(Nc2ncc(C(=O)Nc3c(C)cccc3Cl)s2)cc(N2CCN(CCO)CC2)n1	21.5 µM
O=C(O)Cc1ccccc1Nc1c(Cl)cccc1Cl	> 30 µM
CCCN1CC(NS(=O)(=O)N(CC)CC)CC2Cc3c(O)cccc3CC21 (configuration not stated) [QUINAGOLIDE]	> 30 µM
CCCN1CCCC[C@H]1C(=O)Nc1c(C)cccc1C	> 30 µM
Clc1ccc(Cn2c(CN3CCCC3)nc3ccccc32)cc1	> 30 µM
O=C(O)Cc1ccccc1Oc1ccc(Cl)cc1Cl	> 30 µM
CC(C)[C@@H](C)/C=C/[C@@H](C)[C@H]1CC[C@H]2/C(=C/C=C3\C[C@@H](O)CC[C@@H]3C)CCC[C@]12C [DIHYDROTACHYSTEROL]	> 10 µM
CO/N=C(\C(=O)N[C@@H]1C(=O)N2C(C(=O)O)=C(CSc3nc(=O)c(=O)[nH]n3C)CS[C@H]12)c1csc(N)n1	> 30 µM
CC(C)NC[C@H](O)COc1ccc(CC(N)=O)cc1	> 30 µM
CCC[C@@H]1C[C@@H](C(=O)N[C@@H]([C@H]2O[C@H](SC)[C@H](O)[C@@H](O)[C@H]2O)[C@@H](C)O)N(C)C1	> 10 µM
CC[C@H](C)C(=O)O[C@H]1C[C@@H](C)C=C2C=C[C@H](C)[C@H](CC[C@@H]3C[C@@H](O)CC(=O)O3)[C@H]21	28.5 µM
CC(CN1c2ccccc2Sc2ccccc21)N(C)C (configuration not stated)	> 30 µM

====

Listing of recorded AC50 by entry.
Biological target: UniProtKB P35372
Sequence (P35372 whole entry): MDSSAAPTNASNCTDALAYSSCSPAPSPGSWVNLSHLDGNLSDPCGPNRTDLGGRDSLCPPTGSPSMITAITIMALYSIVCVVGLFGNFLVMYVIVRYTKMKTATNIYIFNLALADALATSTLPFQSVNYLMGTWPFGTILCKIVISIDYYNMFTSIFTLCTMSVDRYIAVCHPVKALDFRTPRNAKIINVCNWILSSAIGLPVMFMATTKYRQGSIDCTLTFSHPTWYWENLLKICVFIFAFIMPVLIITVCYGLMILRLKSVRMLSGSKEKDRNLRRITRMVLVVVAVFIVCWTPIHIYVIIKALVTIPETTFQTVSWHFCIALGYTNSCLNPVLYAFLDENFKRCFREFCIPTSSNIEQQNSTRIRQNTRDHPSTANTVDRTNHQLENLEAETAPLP
OBSERVED_PROPERTY: AC50

MOL	OBSERVED_PROPERTY	RESULT
COc1ccc(C2C(=O)c3ccccc3C2=O)cc1	AC50	> 30 µM
CC[C@H](C)C(=O)O[C@H]1C[C@@H](C)C=C2C=C[C@H](C)[C@H](CC[C@@H]3C[C@@H](O)CC(=O)O3)[C@H]21	AC50	> 30 µM
Cc1ccc(C)c(OCCCC(C)(C)C(=O)O)c1	AC50	> 30 µM
CC(C)c1cccc(C(C)C)c1O	AC50	> 30 µM
O=C1c2ccccc2C(=O)C1c1ccccc1	AC50	> 30 µM
